Source: the supplement of paper PMC8728848

target: Man(a1-2)Man(a1-3)[Man(a1-6)]Man(a1-6)[Man(a1-2)Man(a1-3)]Man(b1-4)GlcNAc(b1-4)GlcNAc; assay: glycan array binding signal (z-score within array); higher = stronger binding; conditions: glycan notation: IUPAC condensed, linker removed
Shown is part of a subset that was picked to be rich in the strongest signals.
value kind: glycan array binding signal (z-score)
Keep the answer to the number alone.

Qu. What value of glycan array binding signal (z-score) has been reported for the following binder? HA-61200 (Pseudomonas aeruginosa), Q02SP8_PSEAB (protein) MNKCYALVWNVSQGCWNVVSEGSRRRGKPAGAKAAIASVLALLGATALAPAYALPSGGTVVGGSANGEIHLSGGNSLSVNQKVDKLIANWDSFSVAAGERVIFNQPSSSSIALNRVIGTKASDIQGRIDANGQVFLVNPNGVLFGRGAQVNVGGLVASTLDITDAEFNGNSSRYRFTGPSTNGVLNHGGAITAAEGGSIALLGAQVDNRGTVLAQMGGVGLGAGSDLTLNFDGNKLLDIRVDAGVANALASNGGLLKADGGRVLMAARTANALLNTVVNSQGAIEARSLRGKNGRIVLDG
Ans. -0.706

Qu. What value of glycan array binding signal (z-score) has been reported for the following binder? SSP1 (Sclerotinia sclerotiorum), XP_001584968 (protein) MGSSHHHHHHSSGLVPRGSHMSLLTTELACTSAPDQVLHLFFQDGQNILEARSPDGGNVWTTQDTIIAKDGDYNGSSMTCYYVDKDANFDNQPSIHLLYMNKDKQLTEKVKRMKGDNPIWEDAKVPDEVRKGPEQYSKLTSGSFNQGTGWNPNGSQWAYFSASKDGKMGIVEIRRTPKDPWHTETILEEKWGDELPGTALACVIGNGKIRVFLQHHDYSIILYENQNNTWHDRGTFIPKDKVQATTPLACTMTKDGSVHLFYVSKSNKIIHCTDGKKEEELINFFPGSKLGATSVENKITLFFRNLNPVNEVGTLENENGSWKHGTTVIPA
Ans. -0.017

Qu. What value of glycan array binding signal (z-score) has been reported for the following binder? SJCP1531 (Schistosoma japonicum) (protein) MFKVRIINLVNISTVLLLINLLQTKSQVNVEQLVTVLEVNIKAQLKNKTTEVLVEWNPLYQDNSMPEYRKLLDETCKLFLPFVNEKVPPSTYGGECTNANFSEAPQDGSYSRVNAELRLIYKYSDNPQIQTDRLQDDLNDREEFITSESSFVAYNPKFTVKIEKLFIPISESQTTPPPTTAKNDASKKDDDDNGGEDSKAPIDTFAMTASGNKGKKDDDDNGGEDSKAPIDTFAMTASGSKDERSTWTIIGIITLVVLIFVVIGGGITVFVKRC
Ans. -1.4

Qu. What value of glycan array binding signal (z-score) has been reported for the following binder? BC2LB (Burholderia cenocepacia), B4EH85_BURCJ (protein) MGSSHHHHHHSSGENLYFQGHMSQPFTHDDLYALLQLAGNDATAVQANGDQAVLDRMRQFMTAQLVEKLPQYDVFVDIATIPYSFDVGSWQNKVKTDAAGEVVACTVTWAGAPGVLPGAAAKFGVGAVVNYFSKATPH
Ans. -0.397

Qu. What value of glycan array binding signal (z-score) has been reported for the following binder? F17fG (Escherichia coli), Q9RH91 (protein) MTNFYKVFLAVFILVCCNISHAAVSFIGSTENDVGPSQGSYSSTHAMDNLPFVYNTGHNIGYQNANVWRISGGFCVGLDGKVDLPVVGSLDGQSIYGLTEEVGLLIWMGDTNYSRGTAMSGNSWENVFSGWCVGNYVSTQGLSVHVRPVILKRNSSAQYSVQKTSIGSIRMRPYNGSSAGSVQTTVNFSLNPFTLNDTVTSCRLLTPSAVNVSLAAISAGQLPSSGDEVVAGTTSLKLQCDAGVTVWATLTDATTPSNRSDILTLTGASTATGVGLRIYKNTDSTPLKFGPDSPVKGNENQWQLSTGTETSPSVRLYVKYVNTGEGINPGTVNGISTFTFSYQ
Ans. -0.263
